Tested on: A375 cells
Experiment: Cellular uptake and subcellular distribution by LC-MS/MS
Assay type: cell-based
Conditions: A375, 25 μM, 24 h, cytoskeletal fraction
result-type: Compound accumulation normalized to telmisartan, Cytoskeleton

compound	measurement
CCCc1nc2c(C)cc(-c3nc4ccccc4n3C)cc2n1Cc1ccc(-c2ccccc2C(=O)NC(Cc2cn(C)c3ccccc23)C(=O)O)cc1 (stereo not shown)	21.14

Kindly note the recorded Compound accumulation normalized to telmisartan, Cytoskeleton for CCCc1nc2c(C)cc(-c3nc4ccccc4n3C)cc2n1Cc1ccc(-c2ccccc2C(=O)NC(Cc2ccc(O)cc2)C(=O)O)cc1 (stereo not shown) , which is 0.69

The compound identified as CCCc1nc2c(C)cc(-c3nc4ccccc4n3C)cc2n1Cc1ccc(-c2ccccc2C(=O)NC(Cc2ccccc2)C(=O)O)cc1 (stereo not shown) registered its Compound accumulation normalized to telmisartan, Cytoskeleton at 7.44

Compound accumulation normalized to telmisartan, Cytoskeleton in this record for CCCc1nc2c(C)cc(-c3nc4ccccc4n3C)cc2n1Cc1ccc(-c2ccccc2C(=O)O)cc1 [Telmisartan, reference compound] : 1.00

Numbers sourced from paper PMC12787000.
